target.entity: Dipeptidase 1 (Sus scrofa, UniProt P22412)
Sequence (P22412 whole entry): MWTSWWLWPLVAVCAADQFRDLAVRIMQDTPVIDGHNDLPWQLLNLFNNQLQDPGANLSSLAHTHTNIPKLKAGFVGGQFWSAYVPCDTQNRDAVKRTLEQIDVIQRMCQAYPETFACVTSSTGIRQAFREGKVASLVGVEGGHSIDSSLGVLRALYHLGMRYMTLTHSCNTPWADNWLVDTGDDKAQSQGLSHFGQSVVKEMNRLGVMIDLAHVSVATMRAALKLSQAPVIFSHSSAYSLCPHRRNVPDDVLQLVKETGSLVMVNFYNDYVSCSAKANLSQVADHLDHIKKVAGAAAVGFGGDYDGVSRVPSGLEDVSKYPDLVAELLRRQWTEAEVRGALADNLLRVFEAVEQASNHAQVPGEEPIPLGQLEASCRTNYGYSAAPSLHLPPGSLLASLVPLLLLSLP
protocol.summary: Inhibitory activity against beta-lactamase renal dipeptidase
pKi: −log10 of the molar value.
parameter.measured: pKi

[I] CC1(C)CC1C(=O)N/C(=C\CCCCCBr)C(=O)O (configuration not stated)
[II] C/C=C(\NC(=O)C1CC(C)(C)C1)C(=O)O
[ask] Compare I and II and name the one whose reported pKi is smaller. Which one? Tell me its label.
[reply] II
